Source listed as patent US6166049A.

assaySystem: human PPARγ (Homo sapiens, UniProt P37231)
Sequence (P37231 201-504): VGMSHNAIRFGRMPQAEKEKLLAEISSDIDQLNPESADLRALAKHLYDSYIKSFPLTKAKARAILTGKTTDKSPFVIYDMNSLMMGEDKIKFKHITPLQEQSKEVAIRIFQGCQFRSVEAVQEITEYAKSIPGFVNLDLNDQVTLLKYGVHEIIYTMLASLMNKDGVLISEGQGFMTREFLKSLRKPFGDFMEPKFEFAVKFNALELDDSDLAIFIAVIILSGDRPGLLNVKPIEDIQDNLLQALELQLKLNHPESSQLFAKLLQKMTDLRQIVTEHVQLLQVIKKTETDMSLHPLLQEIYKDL
experiment: hPPARγ agonist activity, transactivation reporter gene assay
measurementParameters: read-out: EC50 for activation of human PPARγ
Procedure: PPARα and γ agonist activity may be assessed by use of the methodology, or similar methodology, to that disclosed by Lehmann et al: Journal of Biological Chem., 270, 12953-12956 (1995). […] Compound agonist effects at human PPARα and PPARγ were assessed using a transactivation reporter gene assay, based on that described by Lehman et al. (1995) J Biol Chem 270, 12953-12956.
pEC50: −log10 of the molar value.

[
  {
    "smilesEntry": "CN(CCOc1ccc(C[C@H](OCC(F)(F)F)C(=O)O)cc1)c1nc2ccccc2o1",
    "pEC50": 7.15
  }
]
